# Procedure details: Pharmacokinetic test in rats, intravenous
# Type: in vivo
# Measurement parameters: male, rat; SD rats, intravenous 1.0 mg/kg, plasma; read-out: Residence Time MRT
Property: MRT (min)
Give bare numbers, in min.

**Q:** Return reported MRT; argument: CC(C)C(O/N=C(\C(=O)N[C@@H]1C(=O)N(OS(=O)(=O)O)C1(C)C)c1csc(N)n1)c1cc(=O)c(O)cn1O (stereo partly shown)
**A:** 30.6

###

Assign times more effective than BAL30072 in inhibitory activity against Klebsiella pneumonia to each entry below.
# Test system: Klebsiella pneumoniae (4 strains)
# Procedure details: MIC, broth microdilution, iron-deficient MH medium
# Format: cell-based
# Measurement parameters: iron-deficient MH medium; from MIC of Table 3
# Procedure: Supplier of the strains: all of the above strains were provided by Sichuan Primed Shines Bio-tech Co., Ltd. A single colony was isolated by streaking on agar plates for each strain prior to the experiment, and the cells freshly cultured at 37° C. overnight were appropriately diluted for the experiment. Medium: MH liquid medium (OXOID). Culture condition: cells were incubated at 35-37° C. for 16-18 h. […]

State recorded times more effective than BAL30072 in inhibitory activity against Klebsiella pneumonia for all listed compounds.
1. CC(O/N=C(\C(=O)N[C@@H]1C(=O)N(OS(=O)(=O)O)C1(C)C)c1nc(N)sc1Cl)c1cc(=O)c(O)cn1O (stereo partly shown)
2. CC(C)C(O/N=C(\C(=O)N[C@@H]1C(=O)N(OS(=O)(=O)O)C1(C)C)c1csc(N)n1)c1cc(=O)c(O)cn1O (stereo partly shown)
3. CC(C)[C@H](O/N=C(\C(=O)N[C@@H]1C(=O)N(OS(=O)(=O)O)C1(C)C)c1nc(N)sc1Cl)c1cc(=O)c(O)cn1O

**A:**
["64 times", "128-256 times", "128-256 times"]

For each listed entry, give its times more effective than BAL30072 in inhibitory activity against Klebsiella pneumonia.
1. CC(C)C(O/N=C(\C(=O)N[C@@H]1C(=O)N(OS(=O)(=O)O)C1(C)C)c1nc(N)sc1Cl)c1cc(=O)c(O)cn1O (stereo partly shown)
2. CSCC(O/N=C(\C(=O)N[C@@H]1C(=O)N(OS(=O)(=O)O)C1(C)C)c1csc(N)n1)c1cc(=O)c(O)cn1O (stereo partly shown)
3. C[C@H](O/N=C(\C(=O)N[C@@H]1C(=O)N(OS(=O)(=O)O)C1(C)C)c1nc(N)sc1Cl)c1cc(=O)c(O)cn1O
4. CC(C)[C@H](O/N=C(\C(=O)N[C@@H]1C(=O)N(OS(=O)(=O)O)C1(C)C)c1csc(N)n1)c1cc(=O)c(O)cn1O

**A:**
1: 128-512 times; 2: 64-128 times; 3: 16-128 times; 4: 64 times

###

# Tested on: Escherichia coli (4 strains)
# Procedure details: MIC, broth microdilution, iron-deficient MH medium
# Format: cell-based
# Measurement parameters: Escherichia coli; iron-deficient MH medium (16 mg/L 2,2'-bipyridine); clinical isolates (ESBLs); read-out: Antibacterial activity MIC, Escherichia coli (4 strains)
Would you mind telling me the reported MIC of each entry?

>>> print(df.to_string())
                                   compound  property  recorded_measurement
0  CC(O/N=C(\C(=O)N[C@@H]1C(=O)N(OS(=O)(=O)O)C1(C)C)c1nc(N)sc1Cl)c1cc(=O)c(O)cn1O (stereo partly shown)       MIC    0.06 to 0.25 µg/mL
1  CC(C)C(O/N=C(\C(=O)N[C@@H]1C(=O)N(OS(=O)(=O)O)C1(C)C)c1nc(N)sc1Cl)c1cc(=O)c(O)cn1O (stereo partly shown)       MIC    0.06 to 0.25 µg/mL
2  C[C@H](O/N=C(\C(=O)N[C@@H]1C(=O)N(OS(=O)(=O)O)C1(C)C)c1nc(N)sc1Cl)c1cc(=O)c(O)cn1O       MIC    0.03 to 0.25 µg/mL

Your task in this section: give MIC for each listed record.
1. CSCC(O/N=C(\C(=O)N[C@@H]1C(=O)N(OS(=O)(=O)O)C1(C)C)c1csc(N)n1)c1cc(=O)c(O)cn1O (stereo partly shown)
2. CC(C)[C@H](O/N=C(\C(=O)N[C@@H]1C(=O)N(OS(=O)(=O)O)C1(C)C)c1csc(N)n1)c1cc(=O)c(O)cn1O
3. CC(C)[C@H](O/N=C(\C(=O)N[C@@H]1C(=O)N(OS(=O)(=O)O)C1(C)C)c1nc(N)sc1Cl)c1cc(=O)c(O)cn1O
4. CC(C)C(O/N=C(\C(=O)N[C@@H]1C(=O)N(OS(=O)(=O)O)C1(C)C)c1csc(N)n1)c1cc(=O)c(O)cn1O (stereo partly shown)

**A:**
1. 0.06 to 0.25 µg/mL
2. 0.125 to 0.25 µg/mL
3. 0.125 to 1 µg/mL
4. 0.03 to 0.25 µg/mL

###

# Procedure details: Pharmacokinetic test in rats, intravenous
# Format: in vivo
# Measurement parameters: male, rat, in vivo; SD rats, intravenous 1.0 mg/kg, plasma; read-out: Area Under the Curve AUC0-4
Property: AUC(0-t) (µg·h/mL)
Give bare numbers, in µg·h/mL.

**Q:** Entry under review: CC(C)C(O/N=C(\C(=O)N[C@@H]1C(=O)N(OS(=O)(=O)O)C1(C)C)c1csc(N)n1)c1cc(=O)c(O)cn1O (stereo partly shown) [Compound 12] . Reported AUC(0-t)?
**A:** 1.73
